molecular target: human CTPS1 (Homo sapiens); construct: purchased Proteros biostructures GmbH; assay: Human CTPS1 enzyme inhibition (ADP-Glo Max assay); assay type: biochemical; details: human full length CTPS1, 25° C., numeric value printed instead of class symbol, read-out: CTPS1 (Human CTPS1 Enzyme Inhibition, IC50)
QUANTITY_MEASURED: IC50 (µM)
Give the value in µM but do not write µM after it.

// IC50 value for `CS(=O)(=O)Nc1cncc(CC(=O)Nc2ccc(-c3cccnc3)cc2)n1` : 58.6

* * *

Target: human CTPS1 (Homo sapiens, UniProt P17812)
Construct: purchased Proteros biostructures GmbH
Sequence (P17812 whole entry): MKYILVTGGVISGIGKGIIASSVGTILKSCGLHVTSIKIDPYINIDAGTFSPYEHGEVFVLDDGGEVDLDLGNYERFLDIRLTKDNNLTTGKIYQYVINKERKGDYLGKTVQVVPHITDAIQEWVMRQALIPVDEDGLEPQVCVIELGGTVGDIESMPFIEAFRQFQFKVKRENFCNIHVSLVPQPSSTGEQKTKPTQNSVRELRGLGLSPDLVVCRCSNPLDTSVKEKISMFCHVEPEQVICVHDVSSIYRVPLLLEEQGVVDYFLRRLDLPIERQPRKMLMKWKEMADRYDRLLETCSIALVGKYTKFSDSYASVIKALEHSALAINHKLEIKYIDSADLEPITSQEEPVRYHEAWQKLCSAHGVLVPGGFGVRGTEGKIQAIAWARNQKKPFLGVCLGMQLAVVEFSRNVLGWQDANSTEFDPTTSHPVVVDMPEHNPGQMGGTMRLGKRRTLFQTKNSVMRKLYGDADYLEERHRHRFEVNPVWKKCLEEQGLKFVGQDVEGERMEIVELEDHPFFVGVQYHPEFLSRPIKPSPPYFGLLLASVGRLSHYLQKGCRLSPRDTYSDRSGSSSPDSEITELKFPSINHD
Experiment: Human CTPS1 enzyme inhibition (ADP-Glo Max assay)
Assay type: biochemical
Conditions: human full length CTPS1, 25° C., read-out: CTPS1 (Human CTPS1 Enzyme Inhibition, IC50 grouped by potency range)
Experimental: The enzyme inhibitory activities of compounds invented against the target of interest were determined using the ADP-GIoTM Max assay (Promega, UK). […] In all cases, the enzyme converts ATP to ADP and the ADP-GIo™ Max reagent subsequently depletes any remaining endogenous ATP in the reaction system. […] The percentage inhibition produced by each concentration of compound was calculated using the equation shown below: […]
pIC50: −log10 of the molar value.
QUANTITY_MEASURED: pIC50

Recorded pIC50, per entry:
CCC(C(=O)Nc1ccc(-c2cnccn2)cc1)c1ccnc(NS(=O)(=O)C2CC2)n1 (centres unmarked) [P109] ... 6.00 to 7.00
CCOc1cncc(-c2ccc(C(=O)NC(C)(CC)c3ccnc(NS(=O)(=O)C4CC4)n3)c(F)c2)n1 (centres unmarked) [P220] ... 6.00 to 7.00
CCC(C(=O)Nc1ccc(-c2cccnc2)cc1F)c1ccnc(NS(=O)(=O)C2CC2)n1 (centres unmarked) [P93] ... 5.00 to 6.00
CCOc1cncc(-c2ccc(NC(=O)C(CC)c3ccnc(NS(=O)(=O)C4CC4)n3)nc2)n1 (centres unmarked) [P88] ... ≥ 7.00

// pIC50 value for CCOc1cncc(-c2ccc(NC(=O)C(C)(OC)c3cncc(NS(=O)(=O)C4CC4)n3)nc2)n1 (centres unmarked) [P205] : ≥ 7.00

// pIC50 value for CCC(C(=O)Nc1ccc(-c2cncc(C(F)(F)F)n2)cc1F)c1ccnc(NS(=O)(=O)C2CC2)n1 (centres unmarked) [P94] : ≥ 7.00

// pIC50 value for CCOc1cncc(-c2ccc(NC(=O)C(CC)c3cncc(NS(=O)(=O)C4CC4)n3)nc2)n1 (centres unmarked) [P201] : ≥ 7.00

// pIC50 value for CCOc1cncc(-c2ccc(NC(=O)C(OC)c3cncc(NS(=O)(=O)C4CC4)n3)nc2)n1 (centres unmarked) [P203] : ≥ 7.00

* * *

tested on: human CTPS1; test: RapidFire/MS-based enzyme selectivity assay, human CTPS1; format: biochemical; conditions: calculated from the CTPS1 and CTPS2 IC50 values
QUANTITY_MEASURED: Selectivity (fold selectivity between CTPS1 and CTPS2)

CCC(C(=O)Nc1ccc(-c2cncc(OC)n2)cc1F)c1ccnc(NS(=O)(=O)C2CC2)n1 (stereo not drawn) ... + (2-30 fold (+))
CCOc1cncc(-c2ccc(NC(=O)C(C)(C)c3ccnc(NS(=O)(=O)C4CC4)n3)c(C#N)c2)n1 ... + (2-30 fold (+))
